Assay: Kinetic solubility of Form CSII (saturated solutions, HPLC)
Format: physicochemical
Conditions: FeSSIF pH 5.0, thermodynamic from solid; pH=5.0 FeSSIF, 37° C., 30 h
Method: The method parameters of kinetic solubility test in the present disclosure are as follows: A certain amount of Form CSII was suspended into pH=7.4 PBS, pH=6.5 FaSSIF and pH=5.0 FeSSIF at 25° C. or 37° C. to obtain saturated solutions. After equilibration for 24 h, 30 h and 48 h, the suspensions were filtered to obtain saturated solutions, and concentration was determined by HPLC.
Measurement Type: solubility at 30 h (µg/mL)
Answer with a number only, understood to be in µg/mL.

Task item: Fill in: solubility at 30 h of CC[C@@H]1CN(C(=O)NCC(F)(F)F)C[C@@H]1c1cnc2cnc3[nH]ccc3n12 [Form CSII] is ___
Reply: 1400

====

test: Kinetic solubility of Form CSII (saturated solutions, HPLC); assay type: physicochemical; conditions: FaSSIF pH 6.5, thermodynamic from solid; pH=6.5 FaSSIF, 37° C., 24 h
Measurement Type: solubility at 24 h (µg/mL)
Note: unit µg/mL is implicit; provide only the numeric part.

Task item: Reported solubility at 24 h, compound CC[C@@H]1CN(C(=O)NCC(F)(F)F)C[C@@H]1c1cnc2cnc3[nH]ccc3n12 [Form CSII] : ____
Reply: 740

====

experiment: Kinetic solubility of Form CSII (saturated solutions, HPLC); assay type: physicochemical; conditions: PBS pH 7.4, aqueous buffer, thermodynamic from solid; pH=7.4 PBS, 25° C., 24 h
Measurement Type: solubility at 24 h (µg/mL)
Report the figure in µg/mL without appending any unit label.

Task item: Record request: solubility at 24 h value, item CC[C@@H]1CN(C(=O)NCC(F)(F)F)C[C@@H]1c1cnc2cnc3[nH]ccc3n12 [Form CSII]
Reply: 730
